Molecular target: REFACTO® (recombinant factor VIII-like polypeptide consisting of amino acids 1-743 and 1638 through 2332 of human factor VIII) (human) (UniProt P00451)
Sequence (P00451 20-762, chain 1 of 2): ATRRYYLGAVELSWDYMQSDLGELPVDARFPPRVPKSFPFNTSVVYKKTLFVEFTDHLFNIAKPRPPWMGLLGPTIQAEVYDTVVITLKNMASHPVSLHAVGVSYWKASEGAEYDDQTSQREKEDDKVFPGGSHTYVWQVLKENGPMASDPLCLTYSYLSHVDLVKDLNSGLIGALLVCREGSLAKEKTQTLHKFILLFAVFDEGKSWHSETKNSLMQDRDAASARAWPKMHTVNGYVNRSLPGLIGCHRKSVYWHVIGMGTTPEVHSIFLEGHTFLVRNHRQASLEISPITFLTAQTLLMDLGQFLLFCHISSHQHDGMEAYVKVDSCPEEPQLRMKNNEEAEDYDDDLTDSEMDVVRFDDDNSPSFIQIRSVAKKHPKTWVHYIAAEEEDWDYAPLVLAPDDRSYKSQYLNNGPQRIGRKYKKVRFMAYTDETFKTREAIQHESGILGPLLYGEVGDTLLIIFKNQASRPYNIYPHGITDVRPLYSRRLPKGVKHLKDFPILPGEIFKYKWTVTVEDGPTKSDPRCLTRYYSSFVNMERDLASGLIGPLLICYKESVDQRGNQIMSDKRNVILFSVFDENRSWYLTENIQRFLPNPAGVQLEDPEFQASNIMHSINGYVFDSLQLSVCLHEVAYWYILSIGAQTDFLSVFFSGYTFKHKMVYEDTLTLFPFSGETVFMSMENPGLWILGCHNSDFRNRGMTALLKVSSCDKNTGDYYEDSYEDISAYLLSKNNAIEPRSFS
Sequence (P00451 1657-2351, chain 2 of 2): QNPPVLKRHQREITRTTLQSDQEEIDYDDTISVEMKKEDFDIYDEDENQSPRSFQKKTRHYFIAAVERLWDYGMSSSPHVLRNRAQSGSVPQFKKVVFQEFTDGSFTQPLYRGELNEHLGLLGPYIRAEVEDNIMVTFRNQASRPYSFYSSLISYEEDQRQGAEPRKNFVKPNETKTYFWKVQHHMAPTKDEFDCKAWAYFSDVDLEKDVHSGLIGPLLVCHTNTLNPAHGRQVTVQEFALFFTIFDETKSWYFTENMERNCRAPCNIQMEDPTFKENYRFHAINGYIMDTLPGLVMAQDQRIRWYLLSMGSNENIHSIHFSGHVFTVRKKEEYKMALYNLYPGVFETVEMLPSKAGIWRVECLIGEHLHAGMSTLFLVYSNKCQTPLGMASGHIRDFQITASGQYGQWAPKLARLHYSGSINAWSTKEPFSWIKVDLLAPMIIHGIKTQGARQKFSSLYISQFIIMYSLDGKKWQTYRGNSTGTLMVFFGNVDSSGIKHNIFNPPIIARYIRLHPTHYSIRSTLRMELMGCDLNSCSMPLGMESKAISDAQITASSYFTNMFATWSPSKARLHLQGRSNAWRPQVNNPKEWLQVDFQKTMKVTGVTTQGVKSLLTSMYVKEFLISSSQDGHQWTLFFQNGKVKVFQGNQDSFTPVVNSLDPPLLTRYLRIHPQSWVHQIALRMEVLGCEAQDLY
Assay: phage ELISA, with target against without target
recorded-endpoint: R (ratio of the ELISA score with target present to the ELISA score without target)

binder: HPCGSWLRPCLH [TN8 isolate 10 (SEQ ID NO: 10)]
readout-value: 16

1 = FCWVFNWVHCD [TN9/1 isolate … (SEQ ID NO: 75)]
2 = HPCGSWLHPCAA [TN8 isolate 04 (SEQ ID NO: 12)]
Between the two listed entries 1 and 2 , which has its R (ratio of the ELISA score with target present to the ELISA score without target) at the higher number? # answer = label of selected item
1
(1: 14, 2: 6)
